Taken from ChEMBL document CHEMBL1156536.

experiment: Selectivity index, ratio of CC50 for human MT4 cells to EC50 for HIV1; type: toxicity, cell-based; conditions: read-out: Ratio CC50/EC50
PARAMETER_MEASURED: selectivity ratio

Take a look at these entries with their results.
• CC(Cc1ccccc1)OC(=S)Nc1ccc([N+](=O)[O-])cc1 (racemic) = 30
• O=[N+]([O-])c1ccc(NC(=S)OCCc2ccccc2O)cc1 = 3.6
• S=C(Nc1ccc(Cl)cc1)OCCOc1ccccc1 = 12
• O=[N+]([O-])c1ccc(OCCOC(=S)Nc2ccc(Cl)cc2)cc1 = < 1
• Oc1ccccc1OCCOC(=S)Nc1ccccc1 = > 5.2

[Q] State its selectivity ratio: `S=C(Nc1ccccc1)OCc1cccs1`
[A] < 1

[Q] State its selectivity ratio: `S=C(NCCc1ccccn1)Nc1ccc(Br)cn1`
[A] 3000

[Q] State its selectivity ratio: CC(COc1ccccc1)OC(=S)Nc1ccccc1 (racemic)
[A] > 50

[Q] State its selectivity ratio: `S=C(Nc1ccccc1)OCCCc1ccccc1`
[A] > 1.5

[Q] State its selectivity ratio: `COc1ccccc1CCOC(=S)Nc1ccc([N+](=O)[O-])cc1`
[A] > 1000
